- Test system: Staphylococcus aureus SA1199
- MEASUREMENT_NOTES: MIC, standard broth micro-dilution assay, SA 1199
- Assay type: cell-based
I'd appreciate it if you could supply minimal inhibitory concentration (MIC), SA 1199 values for the items below.
One number for each entry.

CC(C)CC(N)C(=O)NC1C(=O)NC(CC(N)=O)C(=O)NC2C(=O)NC3C(=O)NC(C(=O)NC(C(=O)O)c4cc(O)cc(O)c4-c4cc3ccc4O)C(OC3CC(C)(N)C(O)C(C)O3)c3ccc(c(Cl)c3)Oc3cc2cc(c3OC2OC(CO)C(O)C(O)C2O)Oc2ccc(cc2Cl)C1O (stereo not drawn) : 0.5
CC(C)CCC(=O)N[C@H]1C(=O)N[C@@H](CC(N)=O)C(=O)N[C@H]2C(=O)N[C@H]3C(=O)NC(C(=O)N[C@H](C(=O)O)c4cc(O)cc(O)c4-c4cc3ccc4O)[C@H](OC3CC(C)(N)C(O)C(C)O3)c3ccc(c(Cl)c3)Oc3cc2cc(c3OC2OC(CO)C(O)C(O)C2OC2CC(C)(N)C(O)C(C)O2)Oc2ccc(cc2Cl)[C@H]1O (stereo partly drawn) : 0.5
CCCCCCNC(CC(C)C)C(=O)NC1C(=O)NC(CC(N)=O)C(=O)NC2C(=O)NC3C(=O)NC(C(=O)NC(C(=O)O)c4cc(O)cc(O)c4-c4cc3ccc4O)C(OC3CC(C)(N)C(O)C(C)O3)c3ccc(c(Cl)c3)Oc3cc2cc(c3OC2OC(CO)C(O)C(O)C2OC2CC(C)(NCCCCCC)C(O)C(C)O2)Oc2ccc(cc2Cl)C1O (stereo not drawn) : 1
CC1OC(OC2c3ccc(c(Cl)c3)Oc3cc4cc(c3OC3OC(CO)C(O)C(O)C3OC3CC(C)(NCc5ccc(-c6ccccc6)cc5)C(O)C(C)O3)Oc3ccc(cc3Cl)C(O)C(NC(=O)CCCCCCCc3ccccc3)C(=O)NC(CC(N)=O)C(=O)NC4C(=O)NC3C(=O)NC2C(=O)NC(C(=O)O)c2cc(O)cc(O)c2-c2cc3ccc2O)CC(C)(N)C1O (stereo not drawn) : 1
CC1OC(OC2c3ccc(c(Cl)c3)Oc3cc4cc(c3OC3OC(CO)C(O)C(O)C3OC3CC(C)(NCc5ccc(-c6ccccc6)cc5)C(O)C(C)O3)Oc3ccc(cc3Cl)C(O)C(NC(=O)C(CCCCNC(=O)OC(C)(C)C)NC(=O)OC(C)(C)C)C(=O)NC(CC(N)=O)C(=O)NC4C(=O)NC3C(=O)NC2C(=O)NC(C(=O)O)c2cc(O)cc(O)c2-c2cc3ccc2O)CC(C)(N)C1O (stereo not drawn) [Example 30] : 2

Determine its reported minimal inhibitory concentration (MIC), SA 1199: CC1OC(OC2c3ccc(c(Cl)c3)Oc3cc4cc(c3OC3OC(CO)C(O)C(O)C3OC3CC(C)(NCc5ccc(-c6ccccc6)cc5)C(O)C(C)O3)Oc3ccc(cc3Cl)C(O)C(NC(=O)C(N)CCCCN)C(=O)NC(CC(N)=O)C(=O)NC4C(=O)NC3C(=O)NC2C(=O)NC(C(=O)O)c2cc(O)cc(O)c2-c2cc3ccc2O)CC(C)(N)C1O (stereo not drawn) [Example 23]
0.5

----------
Would you kindly list minimal inhibitory concentration (MIC), EC 14 for each of these compounds?
- System: Escherichia coli EC14
- MEASUREMENT_NOTES: MIC, standard broth micro-dilution assay, EC 14
- Type: cell-based

Record excerpt, results attached:
CC1OC(OC2c3ccc(c(Cl)c3)Oc3cc4cc(c3OC3OC(CO)C(O)C(O)C3OC3CC(C)(NCc5ccc(-c6ccccc6)cc5)C(O)C(C)O3)Oc3ccc(cc3Cl)C(O)C(NC(=O)C(Cc3ccc(Cl)cc3)NC(=O)OC(C)(C)C)C(=O)NC(CC(N)=O)C(=O)NC4C(=O)NC3C(=O)NC2C(=O)NC(C(=O)O)c2cc(O)cc(O)c2-c2cc3ccc2O)CC(C)(N)C1O (centres unmarked) [Example 28] : >64
CC1OC(OC2c3ccc(c(Cl)c3)Oc3cc4cc(c3OC3OC(CO)C(O)C(O)C3OC3CC(C)(NCc5ccc(-c6ccccc6)cc5)C(O)C(C)O3)Oc3ccc(cc3Cl)C(O)C(NC(=O)C3CCCN3)C(=O)NC(CC(N)=O)C(=O)NC4C(=O)NC3C(=O)NC2C(=O)NC(C(=O)O)c2cc(O)cc(O)c2-c2cc3ccc2O)CC(C)(N)C1O (centres unmarked) [Example 12] : >64
CC(C)CCC(=O)NC1C(=O)NC(CC(N)=O)C(=O)NC2C(=O)NC3C(=O)NC(C(=O)NC(C(=O)O)c4cc(O)cc(O)c4-c4cc3ccc4O)C(OC3CC(C)(N)C(O)C(C)O3)c3ccc(c(Cl)c3)Oc3cc2cc(c3OC2OC(CO)C(O)C(O)C2OC2CC(C)(NCc3ccc(-c4ccccc4)cc3)C(O)C(C)O2)Oc2ccc(cc2Cl)C1O (centres unmarked) [Example 5] : >64
CC(C)CC(NCc1ccc(-c2ccccc2)cc1)C(=O)NC1C(=O)NC(CC(N)=O)C(=O)NC2C(=O)NC3C(=O)NC(C(=O)NC(C(=O)O)c4cc(O)cc(O)c4-c4cc3ccc4O)C(OC3CC(C)(N)C(O)C(C)O3)c3ccc(c(Cl)c3)Oc3cc2cc(c3OC2OC(CO)C(O)C(O)C2OC2CC(C)(NCc3ccc(-c4ccccc4)cc3)C(O)C(C)O2)Oc2ccc(cc2Cl)C1O (centres unmarked) [Example 35] : >64
CC(C)CC(NC(=O)OC(C)(C)C)C(=O)NC1C(=O)NC(CC(N)=O)C(=O)NC2C(=O)NC3C(=O)NC(C(=O)NC(C(=O)O)c4cc(O)cc(O)c4-c4cc3ccc4O)C(OC3CC(C)(N)C(O)C(C)O3)c3ccc(c(Cl)c3)Oc3cc2cc(c3OC2OC(CO)C(O)C(O)C2OC2CC(C)(NCc3ccc(-c4ccccc4)cc3)C(O)C(C)O2)Oc2ccc(cc2Cl)C1O (centres unmarked) [Example 18] : >64

The following compounds each have a reported value; give each one's minimal inhibitory concentration (MIC), EC 14.
1. CC1OC(OC2c3ccc(c(Cl)c3)Oc3cc4cc(c3OC3OC(CO)C(O)C(O)C3OC3CC(C)(NCc5ccc(-c6ccccc6)cc5)C(O)C(C)O3)Oc3ccc(cc3Cl)C(O)C(NC(=O)C(N)Cc3ccc(Cl)cc3)C(=O)NC(CC(N)=O)C(=O)NC4C(=O)NC3C(=O)NC2C(=O)NC(C(=O)O)c2cc(O)cc(O)c2-c2cc3ccc2O)CC(C)(N)C1O (centres unmarked) [Example 22]
2. CC(C)CC(N)C(=O)NC1C(=O)NC(CC(N)=O)C(=O)NC2C(=O)NC3C(=O)NC(C(=O)NC(C(=O)O)c4cc(O)cc(O)c4-c4cc3ccc4O)C(OC3CC(C)(N)C(O)C(C)O3)c3ccc(c(Cl)c3)Oc3cc2cc(c3OC2OC(CO)C(O)C(O)C2O)Oc2ccc(cc2Cl)C1O (centres unmarked) [Example 37]
3. CC(C)CC(NC(=O)OC(C)(C)C)C(=O)NC1C(=O)NC(CC(N)=O)C(=O)NC2C(=O)NC3C(=O)NC(C(=O)NC(C(=O)O)c4cc(O)cc(O)c4-c4cc3ccc4O)C(OC3CC(C)(N)C(O)C(C)O3)c3ccc(c(Cl)c3)Oc3cc2cc(c3OC2OC(CO)C(O)C(O)C2O)Oc2ccc(cc2Cl)C1O (centres unmarked) [Example 36]

[">64", ">64", ">64"]

----------
- Test system: Escherichia coli EC14
- MEASUREMENT_NOTES: MIC, standard broth micro-dilution assay, EC 14
- Type: cell-based
REPORTED_PROPERTY: minimal inhibitory concentration (MIC), EC 14

CC1OC(OC2c3ccc(c(Cl)c3)Oc3cc4cc(c3OC3OC(CO)C(O)C(O)C3OC3CC(C)(NCc5ccc(-c6ccccc6)cc5)C(O)C(C)O3)Oc3ccc(cc3Cl)C(O)C(NC(=O)c3ccc(-c5ccccc5)cc3)C(=O)NC(CC(N)=O)C(=O)NC4C(=O)NC3C(=O)NC2C(=O)NC(C(=O)O)c2cc(O)cc(O)c2-c2cc3ccc2O)CC(C)(N)C1O (centres unmarked) [Example 6] : >64

Give minimal inhibitory concentration (MIC), EC 14 for CC(C)CC(NCc1ccc(-c2ccccc2)cc1)C(=O)NC1C(=O)NC(CC(N)=O)C(=O)NC2C(=O)NC3C(=O)NC(C(=O)NC(C(=O)O)c4cc(O)cc(O)c4-c4cc3ccc4O)C(OC3CC(C)(N)C(O)C(C)O3)c3ccc(c(Cl)c3)Oc3cc2cc(c3OC2OC(CO)C(O)C(O)C2OC2CC(C)(N)C(O)C(C)O2)Oc2ccc(cc2Cl)C1O (centres unmarked) [Example 34]
>64

----------
Give measured minimal inhibitory concentration (MIC), SH 105 for each item. Keep answers brief.
- Tested on: Staphylococcus haemolyticus 105
- MEASUREMENT_NOTES: MIC, standard broth micro-dilution assay, SH 105
- Assay type: cell-based

CC(C)C[C@@H](N)C(=O)N[C@H]1C(=O)N[C@@H](CC(N)=O)C(=O)N[C@H]2C(=O)N[C@H]3C(=O)NC(C(=O)N[C@H](C(=O)O)c4cc(O)cc(O)c4-c4cc3ccc4O)[C@H](OC3CC(C)(N)C(O)C(C)O3)c3ccc(c(Cl)c3)Oc3cc2cc(c3OC2OC(CO)C(O)C(O)C2OC2CC(C)(N)C(O)C(C)O2)Oc2ccc(cc2Cl)[C@H]1O (stereo partly drawn) [Example 17] : 0.5

Give minimal inhibitory concentration (MIC), SH 105 for each listed item.
1. CC1OC(OC2c3ccc(c(Cl)c3)Oc3cc4cc(c3OC3OC(CO)C(O)C(O)C3OC3CC(C)(NCc5ccc(-c6ccc(Cl)cc6)cc5)C(O)C(C)O3)Oc3ccc(cc3Cl)C(O)C(NC(=O)CCCCCCNC(=O)OC(C)(C)C)C(=O)NC(CC(N)=O)C(=O)NC4C(=O)NC3C(=O)NC2C(=O)NC(C(=O)O)c2cc(O)cc(O)c2-c2cc3ccc2O)CC(C)(N)C1O (stereo not drawn) [Example 9]
2. CC1OC(OC2c3ccc(c(Cl)c3)Oc3cc4cc(c3OC3OC(CO)C(O)C(O)C3OC3CC(C)(NCc5ccc(-c6ccccc6)cc5)C(O)C(C)O3)Oc3ccc(cc3Cl)C(O)C(NC(=O)C(Cc3c[nH]c5ccccc35)NC(=O)OC(C)(C)C)C(=O)NC(CC(N)=O)C(=O)NC4C(=O)NC3C(=O)NC2C(=O)NC(C(=O)O)c2cc(O)cc(O)c2-c2cc3ccc2O)CC(C)(N)C1O (stereo not drawn) [Example 25]
3. CC1OC(OC2C(Oc3c4cc5cc3Oc3ccc(cc3Cl)[C@@H](O)[C@@H](NC(=O)[C@H]3CCCN3C(=O)OC(C)(C)C)C(=O)N[C@@H](CC(N)=O)C(=O)N[C@H]5C(=O)N[C@H]3C(=O)NC(C(=O)N[C@H](C(=O)O)c5cc(O)cc(O)c5-c5cc3ccc5O)[C@H](OC3CC(C)(N)C(O)C(C)O3)c3ccc(c(Cl)c3)O4)OC(CO)C(O)C2O)CC(C)(N)C1O (stereo partly drawn) [Example 24]
4. CC(C)CC(N)C(=O)NC1C(=O)NC(CC(N)=O)C(=O)NC2C(=O)NC3C(=O)NC(C(=O)NC(C(=O)O)c4cc(O)cc(O)c4-c4cc3ccc4O)C(OC3CC(C)(N)C(O)C(C)O3)c3ccc(c(Cl)c3)Oc3cc2cc(c3OC2OC(CO)C(O)C(O)C2OC2CC(C)(NCc3ccc(-c4ccccc4)cc3)C(O)C(C)O2)Oc2ccc(cc2Cl)C1O (stereo not drawn) [Example 13]
5. CC1OC(OC2c3ccc(c(Cl)c3)Oc3cc4cc(c3OC3OC(CO)C(O)C(O)C3OC3CC(C)(N)C(O)C(C)O3)Oc3ccc(cc3Cl)C(O)C(NC(=O)C(Cc3ccccc3)N(C)C(=O)OC(C)(C)C)C(=O)NC(CC(N)=O)C(=O)NC4C(=O)NC3C(=O)NC2C(=O)NC(C(=O)O)c2cc(O)cc(O)c2-c2cc3ccc2O)CC(C)(N)C1O (stereo not drawn) [Example 40]

1. 0.5
2. 2
3. 16
4. 1
5. 4
